- Tested on: HCV genotype 4a replicon
- experimentSummary: Transient replicon assay with engineered substitutions
- Assay type: cell-based, Hepatitis C virus
- assaySetup: 4a NS3 A156V; read-out: Mean EC50 ± SD
pEC50: −log10 of the molar value.
observationType: pEC50

smilesEntry	observationType	valueObserved
C=C[C@@H]1C[C@]1(NC(=O)[C@@H]1C[C@@H]2CN1C(=O)[C@H](C(C)(C)C)NC(=O)O[C@@H]1C[C@H]1CCCCCc1nc3ccc(OC)cc3nc1O2)C(=O)NS(=O)(=O)C1CC1	pEC50	6.77

----------
- System: HCV genotype 1a replicon
- experimentSummary: Transient replicon assay with engineered substitutions
- Assay type: cell-based, Hepatitis C virus
- assaySetup: 1a wild type, transient transfection; read-out: Mean EC50 ± SD
observationType: EC50 (nM)

smilesEntry	valueObserved
C=C[C@@H]1C[C@]1(NC(=O)[C@@H]1C[C@@H]2CN1C(=O)[C@H](C(C)(C)C)NC(=O)O[C@@H]1C[C@H]1CCCCCc1nc3ccc(OC)cc3nc1O2)C(=O)NS(=O)(=O)C1CC1	0.14
